system: HEK-293T; test: Multiplex assay against HEK293T; format: toxicity, cell-based; details: human, 12 h, 1 µM, compound concentration 1 uM, replicate 1
Quick rule: Population Tubulin-Different-Phenotype (%) of at least 40% means Fulfilled, below that means Not fulfilled.

compound	system name	group label
CCn1c(-c2nc3cc(C(=O)N4CCCC(N)C4)ccc3n2C)cc2ccccc21.Cl (centres undefined)	HEK-293T	Not fulfilled
COc1ccc2c(c1OCc1ccccc1)C[C@@H](C(=O)O)N(C(=O)C(c1ccccc1)c1ccccc1)C2	HEK-293T	Not fulfilled
COc1cc(C(=O)N2CC[C@@H](O)[C@@H](N)C2)cc2nc(-c3cc4ccccc4n3CC3CC3)n(C)c12.Cl	HEK-293T	Fulfilled
COc1cc(OC2CCN(C(C)=O)CC2)ccc1C(=O)N1CCC(N2C(=O)OCc3ccccc32)CC1	HEK-293T	Not fulfilled
Cc1cc(O)c(-c2ccc([C@@H](C)CN(C)C)cc2)c2c1[nH]c(=O)c1sccc12	HEK-293T	Fulfilled
CC(C)(C)c1ccc(CSc2cnn(C(C)(C)C)c(=O)c2Cl)cc1	HEK-293T	Not fulfilled
CCC(=O)OCC(=O)[C@@]1(OC(=O)CC)[C@@H](C)C[C@H]2[C@@H]3CCC4=CC(=O)C=C[C@]4(C)[C@@]3(Cl)[C@@H](O)C[C@@]21C [BECLOMETHASONE DIPROPIONATE]	HEK-293T	Fulfilled
CCc1nn2c(C)cc(C)nc2c1Cc1ccc(-c2nnc(C3CCNCC3)o2)cc1	HEK-293T	Not fulfilled

---

Listed below: Population Hoechst High Intensity Objects (%) values for each entry.
system: HEK-293T; assay: Multiplex assay against HEK293T; type: toxicity, cell-based; settings: human, 12 h, 10 µM, compound concentration 10 uM, replicate 1
recorded endpoint: Population Hoechst High Intensity Objects (%)

compound	value units	assay value
COc1ccc2c(c1OCc1ccccc1)C[C@@H](C(=O)O)N(C(=O)C(c1ccccc1)c1ccccc1)C2	%	6
Cc1cc(-c2ccc3c(c2)CC[C@H]3N2CC3(CCN(C(=O)Cc4cn5cc(C)sc5n4)CC3)C2)ncn1	%	11
CCc1nn2c(C)cc(C)nc2c1Cc1ccc(-c2nnc(C3CCNCC3)o2)cc1	%	11
COc1ccc2[nH]c(I)c(CCNC(C)=O)c2c1	%	8
CN1C[C@H](C(=O)N[C@]2(C)O[C@@]3(O)[C@@H]4CCCN4C(=O)[C@H](Cc4ccccc4)N3C2=O)C[C@@H]2c3cccc4[nH]cc(c34)C[C@H]21.CS(=O)(=O)O [DIHYDROERGOTAMINE MESYLATE]	%	9
COCCCN1CCC(NC(=O)c2cc(Cl)c(N)c3c2OCC3)CC1 [PRUCALOPRIDE]	%	4
O=c1ccc2ccc(OCCCCN3CCN(c4cccc5sccc45)CC3)cc2[nH]1	%	66
S=C(NCCCc1c[nH]cn1)NCCCN(Cc1ccc(Cl)c(Cl)c1)c1ccc(Br)cn1	%	33

---

tested on: U2OS; experiment: Multiplex assay against U2OS; format: toxicity, cell-based; details: human, 24 h, 1 µM, compound concentration 1 uM, replicate 2
Catalogue of Population Apoptotic (%) values
recorded endpoint: Population Apoptotic (%)

> print(dat)
                                   compound  assay.value
1  Nc1nc(CC(=O)Nc2ccc(CCNC[C@H](O)c3ccccc3)cc2)cs1 [MIRABEGRON]           58
2  CC(C)C[C@H](CO)Nc1nc(S[C@@H](C)c2ccccc2)nc2nc(N)sc12 [AZD-8797]           83
3  CN1CCN(c2ccc(Nc3c4ccccc4nc4ccccc34)cc2)CC1.Cl.Cl.O          100
4  C[C@H](NC(=O)CNC(=O)c1cccc(Cl)c1)c1ccccc1           88
5  Cc1c(Cc2ccc3ccccc3n2)c2cc(F)ccc2n1CC(=O)O [TIMAPIPRANT]          100
6  CCCCCCNC(=O)Nc1ccc(S(=O)(=O)Nc2ccc(CCNC[C@H](O)COc3ccc(O)cc3)cc2)cc1 [L-755507]           92

---

Population Mitochondria Different-Phenotype (%) values by entry
test system: HEK-293T; assay: Multiplex assay against HEK293T; format: toxicity, cell-based; settings: human, 12 h, 10 µM, compound concentration 10 uM, replicate 1
recorded endpoint: Population Mitochondria Different-Phenotype (%)

compound	system name	assay value
O=C(NCCNCC(O)COc1ccc(O)cc1)N1CCOCC1.O=C(NCCNCC(O)COc1ccc(O)cc1)N1CCOCC1.O=C(O)/C=C/C(=O)O (stereo unspecified) [XAMOTEROL FUMARATE]	HEK-293T	39
Cc1ccc(OCC(O)C(C)NC(C)C)c2c1CCC2.Cl (stereo unspecified)	HEK-293T	66
COc1cc(Nc2ncc3c(n2)-c2ccc(Cl)cc2C(c2c(F)cccc2OC)=NC3)ccc1C(=O)O	HEK-293T	80
Cc1cc(=O)n(C)c2cc(N3C(=O)CC[C@H](NS(=O)(=O)CC(C)C)[C@H]3c3ccc(Cl)cc3)ccc12	HEK-293T	75
OCCCNc1cc(-c2ccnc(Nc3cccc(Cl)c3)n2)ccn1	HEK-293T	83
COc1ccc2c(c1OCc1ccccc1)C[C@@H](C(=O)O)N(C(=O)C(c1ccccc1)c1ccccc1)C2	HEK-293T	42
Cl.Cl.OCCOCCN1CCN(C(c2ccccc2)c2ccc(Cl)cc2)CC1 (stereo unspecified) [HYDROXYZINE HYDROCHLORIDE]	HEK-293T	71
Cn1cc(C(=O)OCC2CCN(CCNS(C)(=O)=O)CC2)c2ccccc21	HEK-293T	55
O=C(O)CCC/C=C\CC1C(O)CC(O)C1/C=C/C(O)COc1cccc(Cl)c1 (stereo unspecified)	HEK-293T	63
COCCn1c(C)c(C)s/c1=N\C(=O)C1C(C)(C)C1(C)C	HEK-293T	91
CCCCCCNC(=O)Nc1ccc(S(=O)(=O)Nc2ccc(CCNC[C@H](O)COc3ccc(O)cc3)cc2)cc1	HEK-293T	69
C=CCN1C[C@H](C(=O)N(CCCN(C)C)C(=O)NCC)C[C@@H]2c3cccc4[nH]cc(c34)C[C@H]21	HEK-293T	65
Cc1sc2c(c1C)C(c1ccc(Cl)cc1)=N[C@H](CC(=O)OC(C)(C)C)c1nnc(C)n1-2	HEK-293T	74
C[C@H](NC(=O)CNC(=O)c1cccc(Cl)c1)c1ccccc1	HEK-293T	54
CCC(=O)OCC(=O)[C@@]1(OC(=O)CC)[C@@H](C)C[C@H]2[C@@H]3CCC4=CC(=O)C=C[C@]4(C)[C@@]3(Cl)[C@@H](O)C[C@@]21C [BECLOMETHASONE DIPROPIONATE]	HEK-293T	87
COc1cc(OC2CCN(C(C)=O)CC2)ccc1C(=O)N1CCC(N2C(=O)OCc3ccccc32)CC1	HEK-293T	57

---

tested on: Fibroblast; assay: Multiplex assay against human fibroblast; type: toxicity, cell-based; conditions: 12 h, 1 µM, compound concentration 1 uM, replicate 1
1 if Population Apoptotic (%) is below 50%. -1 if not; exact matches included in -1.

molecule	system name	group label
CC(C)(C)c1ccc(CSc2cnn(C(C)(C)C)c(=O)c2Cl)cc1 [PYRIDABEN]	Fibroblast	1
CCn1c(-c2nc3cc(C(=O)N4CCCC(N)C4)ccc3n2C)cc2ccccc21.Cl (configuration not stated)	Fibroblast	-1
O=C(NCCNCC(O)COc1ccc(O)cc1)N1CCOCC1.O=C(NCCNCC(O)COc1ccc(O)cc1)N1CCOCC1.O=C(O)/C=C/C(=O)O (configuration not stated) [XAMOTEROL FUMARATE]	Fibroblast	-1
CCC(=O)OCC(=O)[C@@]1(OC(=O)CC)[C@@H](C)C[C@H]2[C@@H]3CCC4=CC(=O)C=C[C@]4(C)[C@@]3(Cl)[C@@H](O)C[C@@]21C [BECLOMETHASONE DIPROPIONATE]	Fibroblast	1
O=C(Nc1cc(-c2ccccc2)nn1-c1ccccc1F)c1ccc([N+](=O)[O-])cc1	Fibroblast	1
CC(C)(O)C(=O)N1CCN(c2ccc(C(F)(F)F)c(C3=C(c4c[nH]c5ccccc45)C(=O)NC3=O)c2)CC1	Fibroblast	1
O=c1nc2[nH]c3ccccc3nc-2c(=O)[nH]1 [ALLOXAZINE]	Fibroblast	-1
COc1ccc2[nH]c(I)c(CCNC(C)=O)c2c1 [IODOMELATONIN]	Fibroblast	-1
CN(C)C/C=C/C(=O)Nc1ccc(C(=O)N2CCCC(Nc3ncc(Cl)c(-c4c[nH]c5ccccc45)n3)C2)cc1 (configuration not stated)	Fibroblast	1
COCCCN1CCC(NC(=O)c2cc(Cl)c(N)c3c2OCC3)CC1 [PRUCALOPRIDE]	Fibroblast	1
CCCCC[C@H](O)/C=C/[C@H]1[C@H](O)CC(=O)[C@@H]1CCCCCCC(=O)O [ALPROSTADIL]	Fibroblast	-1
COc1c(Nc2ccc(S(C)(=O)=O)nc2C)ncnc1OC1CCN(C(=O)OC(C)C)CC1 [ADP-597]	Fibroblast	-1
CCc1nn2c(C)cc(C)nc2c1Cc1ccc(-c2nnc(C3CCNCC3)o2)cc1	Fibroblast	1
Cc1cc(O)c(-c2ccc([C@@H](C)CN(C)C)cc2)c2c1[nH]c(=O)c1sccc12	Fibroblast	-1
Nc1nc(CC(=O)Nc2ccc(CCNC[C@H](O)c3ccccc3)cc2)cs1 [MIRABEGRON]	Fibroblast	-1
